These measurements were taken from patent US8476043B2.

- studyTarget: human sEH (Homo sapiens)
- Construct: made in house
- Sequence (P34913 1-555): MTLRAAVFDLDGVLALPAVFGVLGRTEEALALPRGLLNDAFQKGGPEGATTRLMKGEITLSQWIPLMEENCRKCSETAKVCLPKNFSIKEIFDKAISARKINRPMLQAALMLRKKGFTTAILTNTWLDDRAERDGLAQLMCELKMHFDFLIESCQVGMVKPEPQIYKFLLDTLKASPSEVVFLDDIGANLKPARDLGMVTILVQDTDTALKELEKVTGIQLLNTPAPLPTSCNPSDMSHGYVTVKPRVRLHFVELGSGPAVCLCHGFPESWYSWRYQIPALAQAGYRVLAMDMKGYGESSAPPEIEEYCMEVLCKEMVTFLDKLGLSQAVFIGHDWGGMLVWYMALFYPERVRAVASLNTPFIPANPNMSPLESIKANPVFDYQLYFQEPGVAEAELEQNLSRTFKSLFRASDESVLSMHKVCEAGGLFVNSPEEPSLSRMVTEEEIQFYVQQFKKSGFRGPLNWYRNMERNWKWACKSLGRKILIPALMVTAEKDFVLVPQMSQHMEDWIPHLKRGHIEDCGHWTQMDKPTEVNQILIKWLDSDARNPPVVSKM
- assayComment: sEH inhibition, fluorescent assay with cyano(6-methoxy-naphthalen-2-yl)methyl trans-[(3-phenyloxiran-2-yl)methyl]carbonate as substrate
- Type: biochemical
- measurementConditions: Table 18b; fluorescent assay with cyano(6-methoxy-naphthalen-2-yl)methyl trans-[(3-phenyloxiran-2-yl)methyl]carbonate as substrate; mean ± SD; read-out: IC50
pIC50: −log10 of the molar value.
reportedEndpoint: pIC50

Examples with their reported pIC50 follow.
O=C(CCCCCCOCCCCCCc1ccccc1)NC12CC3CC(CC(C3)C1)C2 [Compound 1125] ... 8.00
CCN(CC)C(=O)OCc1cccc(-c2ccccc2)c1C [Compound 1464] ... 5.14
O=C(NC1CCCCC1)Oc1cccc(-c2ccccc2)c1 [Compound 1229] ... 6.04

A: O=C(Nc1cccc(Oc2ccccc2)c1)NC12CC3CC(CC(C3)C1)C2 [Compound 1195]
B: O=C(O)CCCCCNC(=O)NC12CC3CC(CC(C3)C1)C2 [Compound 1213]
Q) I need your help: which of the pair A , B has higher pIC50? Please identify the chosen entry by its label.
A) A

a: O=C(NCCCC(=O)OC(c1ccccc1)c1ccccc1)NC12CC3CC(CC(C3)C1)C2 [Compound 1164]
b: O=C(CCCCCCOCCCc1ccccc1)NC12CC3CC(CC(C3)C1)C2 [Compound 1027]
Q) I need your help: which of the pair a , b has higher pIC50? Label of pick, please.
A) a

a: O=C(O)Cc1ccc(NC(=O)NC23CC4CC(CC(C4)C2)C3)cc1 [Compound 1178]
b: CCCCCNC(=O)NCCOCc1ccc2ccccc2c1 [Compound 1116]
c: O=C(O)COc1ccc(NC(=O)NC23CC4CC(CC(C4)C2)C3)cc1 [Compound 1185]
d: O=C(NC1CCCC(C(=O)NCCOCCO)C1)NC12CC3CC(CC(C3)C1)C2 (stereo not drawn) [Compound 1022]
Q) rank_up(items): orders items by reported pIC50 in ascending numerical order. Labels, requested order.
A) b, c, d, a
